Just for reference, paper PMC5540273 is where these values come from.

Listed here are molecules together with their documented %Inh.
Tested on: PDPK1
Details: concentration: 1 μM, replicates: in singlicate; n = 1;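 note: KINOMEscan kinase panel screen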
Report only the number, with the unit % understood.

{"smiles.data": "Cn1cc(-c2ccc3c(c2)CCN3C(=O)Cc2cccc(F)c2)c2c(N)ncnc21", "test.readout": "%Inh", "quantity.unit": "%", "measured.value": 0}
{"smiles.data": "Cl.c1ccc(-c2ccc3c(Nc4ccc5[nH]ccc5c4)ccnc3c2)nc1", "test.readout": "%Inh", "quantity.unit": "%", "measured.value": 0}
{"smiles.data": "O=C(Nc1cccc(-c2nn3ccccc3c2-c2ccnc(Nc3cccc(F)c3)n2)c1)c1c(F)ccc(F)c1Cl", "test.readout": "%Inh", "quantity.unit": "%", "measured.value": 36}
{"smiles.data": "COc1ccc(Nc2nccc(NCCNC(=O)c3cc4ccccc4s3)n2)cc1", "test.readout": "%Inh", "quantity.unit": "%", "measured.value": 8}
{"smiles.data": "Cc1cccc(NC(=O)Nc2ccc(Oc3ncnc4ccn(C)c34)cc2)c1", "test.readout": "%Inh", "quantity.unit": "%", "measured.value": 0}

So what does the record say about %Inh for CC(=O)N1CCN(c2ccc(Nc3nccc(-c4sc(C(C)C)nc4-c4cccc(NS(=O)(=O)c5cccc(Cl)c5)c4)n3)cn2)CC1 ? 0

# get_value(readout='%Inh', item= COC(=O)Nc1nc2ccc(Oc3ccc(NC(=O)Nc4cc(C(F)(F)F)ccc4F)cc3)cc2n1C.Cl ) 0

Field request: %Inh | item: Cc1ccc(C(=O)N2CC[C@@H](O)C2)cc1-n1c(C)cc(OCc2ccc(F)cc2F)c(Br)c1=O 30

---

Tested on: PIK3CB
Settings: concentration: 1 μM, replicates: in singlicate; n = 1
// reported %Inh for each item listed
Lab book: enter the figure in %, no units written.

Look up %Inh with PIK3CB for this compound: Cl.NC(=O)c1cccc(Nc2nccc(Nc3ccc(Oc4c(Cl)cccc4Cl)c(Cl)c3)n2)c1 [GW659009] 0

---

System: SIK
Conditions: concentration: 1 μM, replicates: in singlicate; n = 1
test.readout: %Inh (%)
Return type: number; implicit unit %.

Worked set:
{"compound": "COc1ccc(CNC(=O)NC2CCN(c3ccnc(Nc4ccc(F)cc4)n3)CC2)cc1", "tested.system": "SIK", "%Inh / %": 0}
{"compound": "COCCOCCOc1cc2ncc3c4ccc(C#N)cc4[nH]c3c2cc1OC", "tested.system": "SIK", "%Inh / %": 13}
{"compound": "Cl.Cl.NCC(NC(=O)c1cc(-c2ccccc2)c(-c2ccnc3[nH]ccc23)s1)c1ccccc1 (centres unmarked)", "tested.system": "SIK", "%Inh / %": 11}

// query %Inh value for entry CC(C)c1nc(-c2cccc(NS(=O)(=O)c3c(F)cccc3F)c2F)c(-c2ccnc(Nc3ccc(N4CCOCC4)nc3)n2)s1 99.5

---

Tested on: EPHA7
Conditions: concentration: 1 μM, replicates: in singlicate; n = 1
test.readout: %Inh (%)
Number in %, nothing else.

Given the entry O=C(Nc1n[nH]c2nc(-c3ccc(O)cc3)ccc12)C1CC1 [SB-710363] , report its measured %Inh. 0

---

Test system: PIK3CD
Conditions: concentration: 1 μM, replicates: in singlicate; n = 1
Given measured %Inh, output 1 (yes) if it is greater than or equal to 2% and 0 (no) if not.

Please review the entries below; each comes with its answer.
{"compound": "O=c1[nH]cc(-c2ccc(N3CCOCC3)cc2)c2sc(-c3cn[nH]c3)cc12", "tested.system": "PIK3CD", "assigned.category": "1 (yes)"}
{"compound": "O=C(NC1CCN(c2ccnc(Nc3ccc(F)cc3)n2)C1)c1cc2ccccc2s1 (stereo not drawn)", "tested.system": "PIK3CD", "assigned.category": "0 (no)"}
{"compound": "CCc1ccc(-c2ccc3c(c2)-c2c(cnn2C)S(=O)(=O)N3C)cc1", "tested.system": "PIK3CD", "assigned.category": "0 (no)"}
{"compound": "Fc1ccc(-c2ncn(C3CCNCC3)c2-c2ccnc(Oc3ccc(-c4ccccc4)cc3)n2)cc1", "tested.system": "PIK3CD", "assigned.category": "1 (yes)"}
{"compound": "CN1CCN(Cc2cccc(-c3ccc4c(Nc5ccc(Oc6ccccc6)cc5)ccnc4c3)c2)CC1", "tested.system": "PIK3CD", "assigned.category": "1 (yes)"}

Does the reported %Inh for Nc1ncc(-c2ccc3nccc(-c4ccncc4)c3c2)cc1S(=O)(=O)N1CCOCC1 fall at or above the 2% mark? 1 (yes)

---

Tested on: CDKL1
Details: concentration: 1 μM, replicates: in singlicate; n = 1
test.readout: %Inh (%)
Your answer is read as %, so omit the unit and give the number.

API: value(readout=%Inh, system=CDKL1) for record COc1cc2c(cc1OCCN1CCNCC1)ncc1c3ccc(C#N)cc3[nH]c21 19

Look up %Inh with CDKL1 for this compound: Nc1ncc(-c2ccc3nccc(-c4ccncc4)c3c2)cc1S(=O)(=O)N1CCOCC1 [GSK1627798] 0

// fetch CDKL1 %Inh for O=C(Nc1cccc(Oc2ccc3nc(NC(=O)C4CC4)cn3n2)c1)c1ccccc1C(F)(F)F 43

Test system CDKL1; read-out %Inh; what value for O=C(Nc1cccc(-c2nn3ncccc3c2-c2ccnc(Nc3ccccc3)n2)c1)c1c(F)cccc1F [GSK198271] ? 3

---

Test system: CDC2L5
Construct: gene CDK13
Details: concentration: 1 μM, replicates: in singlicate; n = 1
# %Inh values compiled below
Just the number in %, nothing appended.

{"compound": "Nc1ncc(-c2ccc3nccc(-c4ccncc4)c3c2)cc1S(=O)(=O)N1CCOCC1", "tested.system": "CDC2L5", "%Inh (%)": 0}
{"compound": "Nc1ncnc2c1nc(-c1ccccc1)n2-c1ccccc1", "tested.system": "CDC2L5", "%Inh (%)": 48}
{"compound": "O=C(Nc1n[nH]c2nc(-c3ccc(O)cc3)ccc12)C1CC1", "tested.system": "CDC2L5", "%Inh (%)": 69}
{"compound": "NCCCC(NC(=O)c1cc(Br)c(-c2ccnc3[nH]ccc23)s1)c1ccccc1.O=C(O)C(F)(F)F.O=C(O)C(F)(F)F (centres unmarked)", "tested.system": "CDC2L5", "%Inh (%)": 0}
{"compound": "COc1cc(Nc2nccc(-c3c(-c4cccc(NC(=O)c5c(F)cccc5F)c4)nn4ncccc34)n2)cc(OC)c1OC", "tested.system": "CDC2L5", "%Inh (%)": 0}

Which %Inh is reported with CDC2L5 for this entry: O=C(Nc1cccc(-c2nn3ccccc3c2-c2ccnc(Nc3cccc(C(F)(F)F)c3)n2)c1)c1c(F)cccc1F ? 99.3

# returns recorded %Inh (system: CDC2L5) for COC(=O)Nc1nc2ccc(Oc3ccc(NC(=O)Nc4cc(C(F)(F)F)ccc4F)cc3)cc2n1C.Cl 0

Enter reported %Inh observed with CDC2L5 for Cc1ccc(F)c(C(=O)Nc2cccc(-c3nn4ccccc4c3-c3ccnc(Nc4cccc(F)c4)n3)c2)c1F 0

---

Tested on: TNK2
Settings: concentration: 1 μM, replicates: in singlicate; n = 1
Documented %Inh across a set of compounds
Report the value in % with no unit label.

Known results for compounds:
{"compound": "COc1cc(Nc2nccc(N3CCC(NC(=O)c4cc5ccccc5s4)C3)n2)cc(OC)c1OC (centres unmarked) [GSK1379760]", "tested.system": "TNK2", "%Inh, %": 15}
{"compound": "Cc1cccc(Nc2nc(N[C@H]3CCNC3)ncc2C(N)=O)c1.Cl [GSK2197149]", "tested.system": "TNK2", "%Inh, %": 6}

// lookup %Inh for CCn1c(-c2nonc2N)nc2c(C#CC(C)(C)O)ncc(OCCCCN)c21.O=C(O)C(F)(F)F.O=C(O)C(F)(F)F [GSK507274] 11

Look at this compound and give its reported %Inh. Nc1ncc(-c2cccnc2)c2scc(-c3ccc4c(c3)CCN4C(=O)Cc3ccccc3)c12 [GSK683281] 59

Give its %Inh value. Item: O=C(Nc1cccc(-c2nn3ncccc3c2-c2ccnc(Nc3ccccc3)n2)c1)c1c(F)cccc1F [GSK198271] 51

Consider the compound O=C(Nc1cccc(-c2nn3ccccc3c2-c2ccnc(Nc3cccc(F)c3)n2)c1)c1c(F)ccc(F)c1Cl [GSK357952] and give its measured %Inh. 21

Requested field: %Inh. Item: COc1cccc(C2=C(Nc3ccc(Cl)c(C(=O)O)c3)C(=O)NC2=O)c1 [SB-390769] 17

Bench note: what %Inh did CN(c1ccc(NC(=O)Nc2cc(C(F)(F)F)ccc2F)cc1)c1ccnc(Nc2ccc(S(N)(=O)=O)cc2)n1 [GW809893] show? 0

---

Test system: MAP4K4
Details: concentration: 1 μM, replicates: in singlicate; n = 1
test.readout: %Inh (%)
Number only, in %; omit the unit.

Guide cases for %Inh, answers given:
{"compound": "COc1cccc(-c2ccc3c(NC(=O)C4CC4)n[nH]c3n2)c1", "%Inh [%]": 53}
{"compound": "Cl.Cl.NCC(NC(=O)c1cc(-c2ccccc2)c(-c2ccnc3[nH]ccc23)s1)c1ccccc1 (stereo not shown)", "%Inh [%]": 98}
{"compound": "COCCOCCOc1cc2ncc3c4ccc(C#N)cc4[nH]c3c2cc1OC", "%Inh [%]": 42}

Report %Inh for Nc1ncc(-c2cccnc2)c2scc(-c3ccc4c(c3)CCN4C(=O)Cc3ccccc3)c12 please. 8
